From: paper PMC8699473

# Procedure Text: Long-term stability in spiked pooled human plasma
# Condition Details: validation standard MOV
Endpoint Label: Long-term stability, 1 month, -80°C Accuracy [%] (%)
Give the value, in units of %, as a plain number.

compound=COc1cc2ncnc(Nc3ccc(F)c(Cl)c3)c2cc1NC(=O)/C=C/CN1CCCCC1 value_unit=% recorded_result=95.2
compound=Cc1cn(-c2cc(NC(=O)c3ccc(C)c(Nc4nccc(-c5cccnc5)n4)c3)cc(C(F)(F)F)c2)cn1 value_unit=% recorded_result=91.9
compound=COC(=O)N[C@@H](C)CNc1nccc(-c2cn(C(C)C)nc2-c2cc(Cl)cc(NS(C)(=O)=O)c2F)n1 value_unit=% recorded_result=97.1
compound=CNC(=O)c1ccccc1Sc1ccc2c(/C=C/c3ccccn3)n[nH]c2c1 value_unit=% recorded_result=87.50
compound="Nc1cccc2c1C(=O)N(C1CCC(=O)NC1=O)C2=O (centres unmarked) [Pomalidomide]" value_unit=% recorded_result=88.3

// field: Long-term stability, 1 month, -80°C Accuracy [%]; key: `C#Cc1cccc(Nc2ncnc3cc(OCCOC)c(OCCOC)cc23)c1` ; value = 97.0

// field: Long-term stability, 1 month, -80°C Accuracy [%]; key: Nc1cccc2c1CN(C1CCC(=O)NC1=O)C2=O (centres unmarked) [Lenalidomide] ; value = 93.9

// field: Long-term stability, 1 month, -80°C Accuracy [%]; key: `CCN(CC)CCNC(=O)c1c(C)[nH]c(/C=C2\C(=O)Nc3ccc(F)cc32)c1C` ; value = 107.0

// field: Long-term stability, 1 month, -80°C Accuracy [%]; key: CNC(=O)c1ccc(N2C(=S)N(c3ccc(C#N)c(C(F)(F)F)c3)C(=O)C2(C)C)cc1F [Enzalutamide] ; value = 90.6

// field: Long-term stability, 1 month, -80°C Accuracy [%]; key: `CCCS(=O)(=O)Nc1ccc(F)c(C(=O)c2c[nH]c3ncc(-c4ccc(Cl)cc4)cc23)c1F` ; value = 106.7

* * *

# Procedure Text: Long-term stability in spiked pooled human plasma
# Condition Details: validation standard MOV
Endpoint Label: Long-term stability, 1 month, -20°C Accuracy [%]
Quote the value and follow it with the unit of measurement.

Please review the following examples before continuing.
compound="O=C(c1cc(Cc2n[nH]c(=O)c3ccccc23)ccc1F)N1CCN(C(=O)C2CC2)CC1 [Olaparib]" recorded_result=95.3%
compound="C[C@@H](Oc1cc(-c2cnn(C3CCNCC3)c2)cnc1N)c1c(Cl)ccc(F)c1Cl [Crizotinib]" recorded_result=90.2%
compound="CCN1CCN(Cc2ccc(Nc3ncc(F)c(-c4cc(F)c5nc(C)n(C(C)C)c5c4)n3)nc2)CC1 [Abemaciclib]" recorded_result=103.0%

// field: Long-term stability, 1 month, -20°C Accuracy [%]; key: Cc1cn(-c2cc(NC(=O)c3ccc(C)c(Nc4nccc(-c5cccnc5)n4)c3)cc(C(F)(F)F)c2)cn1 [Nilotinib] ; value = 95.6%

* * *

Overview of recorded Long-term stability, 3 month, -80°C Accuracy [%] for various molecules
# Procedure Text: Long-term stability in spiked pooled human plasma
# Condition Details: validation standard 2xLLOV
Give the value, in units of %, as a plain number.

Please review the following examples before continuing.
smiles_code=Cc1cc(Nc2ncc(Cl)c(Nc3ccccc3S(=O)(=O)C(C)C)n2)c(OC(C)C)cc1C1CCNCC1 recorded_result=93.4
smiles_code=Cc1ccc(C(=O)Nc2ccc(CN3CCN(C)CC3)c(C(F)(F)F)c2)cc1C#Cc1cnc2cccnn12 recorded_result=98.9
smiles_code=CNC(=O)c1cc(Oc2ccc(NC(=O)Nc3ccc(Cl)c(C(F)(F)F)c3)c(F)c2)ccn1 recorded_result=103.7

// field: Long-term stability, 3 month, -80°C Accuracy [%]; key: `CN(C)C/C=C/C(=O)Nc1cc2c(Nc3ccc(F)c(Cl)c3)ncnc2cc1O[C@H]1CCOC1` ; value = 94.1
